Provide the reported ABSOLUTE LYMPHOCYTE of each item.
organism: Rattus norvegicus; test: DrugMatrix - Regimen: Daily Repeat; format: toxicity, organism-based, Sprague-Dawley; parameters: regimen Daily Repeat, gender Male, age 6-8 weeks; details: in vivo, po, 0 mg/kg, 120 h, tissue Blood, route oral GAVAGE, dose level Control, time 5 day, […]
Report the figure in CELLS/uL without appending any unit label.

Which value of ABSOLUTE LYMPHOCYTE has been reported for c1ccc2c(c1)Nc1ccccc1S2 in the records? 10431

Repeat with COC(=O)Nc1nc2ccc(C(=O)c3ccccc3)cc2[nH]1 8295.33

Moving on to CCOC(=O)C1=C(C)NC(C)=C(C(=O)OCC)C1c1ccccc1/C=C/C(=O)OC(C)(C)C 11518.33

Ok, now Oc1ncnc2[nH]ncc12 15950.83

Quick one: Cc1cccc(C)c1NC(=O)C(C)N (stereo not drawn) [TOCAINIDE] 9065

Now the same for CC(C)(c1ccc(O)cc1)c1ccc(O)cc1 9629.83

// repeat for O=C(Nc1ccc(Cl)c(Cl)c1)c1cc(Cl)cc(Cl)c1O [3,3',4',5-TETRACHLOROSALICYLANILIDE] and report 12494.67

Same read-out for CC#C[C@]1(O)CC[C@H]2[C@@H]3CCC4=CC(=O)CCC4=C3[C@@H](c3ccc(N(C)C)cc3)C[C@@]21C ? 8049.5

// repeat for CCC(C)(C)C(=O)O[C@H]1C[C@@H](C)C=C2C=C[C@H](C)[C@H](CC[C@@H]3C[C@@H](O)CC(=O)O3)[C@H]21 and report 8049.5

Note, next up: COc1ccccc1OCCNCC(O)COc1cccc2[nH]c3ccccc3c12 (stereo not drawn) 8295.33

Query CS(=O)(=O)c1ccc(C2=C(c3ccccc3)C(=O)OC2)cc1 next 10431

Also need CO[C@H]1O[C@@H]2O[C@@]3(C)CC[C@H]4[C@H](C)CC[C@@H]([C@H]1C)[C@@]24OO3 , thanks. 14952.83

And then O=C(O)COC(=O)Cc1ccccc1Nc1c(Cl)cccc1Cl , what is it? 8295.33

====

organism: Rattus norvegicus; experiment: DrugMatrix - Regimen: Daily Repeat; type: toxicity, organism-based, Sprague-Dawley; parameters: regimen Daily Repeat, gender Male, age 6-8 weeks; details: in vivo, po, 0 mg/kg, 72 h, tissue Plasma, route oral GAVAGE, dose level Control, time 3 day, vehicle 100 % SALINE
RECORDED METRIC: POTASSIUM (MEQ/L)
Report the figure in MEQ/L without appending any unit label.

Entry O=[As][O-].[Na+] [SODIUM ARSENITE] has what POTASSIUM? 5.83

Entry Cc1ccnc2c1NC(=O)c1cccnc1N2C1CC1 please 6.75

What would you report for CC(CN1c2ccccc2Sc2ccccc21)N(C)C (stereo not given) ? 6.88

What would you report for CCO ? 5.83

CCN(CC)N=O , same question. 6.32

====

species on record: Rattus norvegicus; test: DrugMatrix - Regimen: Daily Repeat; assay type: toxicity, organism-based, Sprague-Dawley; parameters: regimen Daily Repeat, gender Male, age 6-8 weeks; details: in vivo, iv, 0 mg/kg, 72 h, tissue Plasma, dose level Control, time 3 day, vehicle 100 % SALINE
Would you mind telling me the reported SODIUM of each entry?
Answer by giving the amount and then stating its unit.

Look up SODIUM: CO[C@@]12[C@H](COC(N)=O)C3=C(C(=O)C(C)=C(N)C3=O)N1C[C@@H]1N[C@@H]12 143.12 MEQ/L

Another: CC(=O)[C@]1(O)Cc2c(O)c3c(c(O)c2[C@@H](O[C@H]2C[C@H](N)[C@H](O)[C@H](C)O2)C1)C(=O)c1ccccc1C3=O 144.42 MEQ/L

Now this one: COC(=O)C[C@](O)(CCC(C)(C)O)C(=O)O[C@@H]1C(OC)=C[C@]23CCCN2CCc2cc4c(cc2[C@H]13)OCO4 144.02 MEQ/L

Continue with Cc1c(N)nc([C@H](CC(N)=O)NC[C@H](N)C(N)=O)nc1C(=O)N[C@H](C(=O)N[C@H](C)[C@@H](O)[C@H](C)C(=O)N[C@H](C(=O)NCCc1nc(-c2nc(C(=O)NCCC[S+](C)C)cs2)cs1)[C@@H](C)O)[C@@H](O[C@@H]1O[C@@H](CO)[C@@H](O)[C@H](O)[C@@H]1O[C@H]1O[C@H](CO)[C@@H](O)[C@H](OC(N)=O)[C@@H]1O)c1c[nH]cn1.[Br-] 141.68 MEQ/L

// data source = ChEMBL document CHEMBL3885881
